- SYSTEM: CDK2 (human)
- METHOD SUMMARY: Cell-Based Assay
- CONDITION DESCRIPTION: imr90
MEASUREMENT KIND: IC50 (µM)

A: Cc1[nH]c(C#N)c(C)c1-c1ccnc(Nc2ccc(I)cc2)n1
B: Cc1[nH]c(C#N)c(C)c1-c1ccnc(Nc2ccc(F)cc2)n1
Ask | Between item A and item B , which reported IC50 is smaller? Response format: the label of the selected entry.
Reply | B
(B: 20.8 µM, A: 37.3 µM)

---

- SYSTEM: CDK2 (human)
- METHOD SUMMARY: Cell-Based Assay
- CONDITION DESCRIPTION: ht-29
MEASUREMENT KIND: IC50 (nM)

Completed entries (count: 5):
Cc1[nH]c(C#N)c(C)c1-c1ccnc(Nc2ccc(I)cc2)n1 = 110
Cc1[nH]c(CN2CCN(C)CC2)c(C)c1-c1ccnc(Nc2ccc(F)cc2)n1 = 5090
Cc1[nH]c([N+](=O)[O-])c(C)c1-c1ccnc(Nc2ccc(N(C)C)cc2)n1 = 610
Cc1c[nH]c(C)c1-c1ccnc(Nc2ccc(C(F)(F)F)cc2)n1 = 3100
Cc1ccc(Nc2nccc(-c3c(C)[nH]c(C#N)c3C)n2)cc1F = 280

I: Cc1[nH]c(CN(C)C)c(C)c1-c1ccnc(Nc2ccc(F)cc2)n1
II: CCN(CC)Cc1[nH]c(C)c(-c2ccnc(Nc3ccc(F)cc3)n2)c1C
III: Cc1ccc(Nc2nccc(-c3c(C)[nH]c(C#N)c3C)n2)cc1I
IV: Cc1[nH]c(C#N)c(C)c1-c1ccnc(Nc2ccc(N(C)C)cc2)n1
Ask | Arrange the 4 molecules by rising IC50, starting with the smallest. Thanks in advance for listing the labels in the requested order.
Reply | IV, III, II, I

A: Cc1cc(Nc2nccc(-c3c(C)[nH]c(C#N)c3C)n2)ccc1Cl
B: Cc1[nH]c(C#N)c(C)c1-c1ccnc(Nc2ccc(C(F)(F)F)cc2)n1
Ask | Between item A and item B , which reported IC50 is smaller? Response format: the label of the selected entry.
Reply | B
(B: 950 nM, A: 3270 nM)
